Measured YAP1 (% UTC) values are reported for all entries that follow.
# Tested on: Yap1 mRNA
# test: Antisense inhibition of human Yap1 in A-431 cells by cEt gapmers, single dose (Example 1, RTS4814)
# Format: cell-based
# stated.conditions: A-431 cells, 5,000 cells per well, free uptake, 2,000 nM modified oligonucleotide, approx. 48 hours, RTS4814, normalized to RIBOGREEN; Table 3
# Protocol: Modified oligonucleotides were designed to target a Yap1 nucleic acid and were tested for their effect on Yap1 mRNA level in vitro. The modified oligonucleotides were tested in a series of experiments that had similar culture conditions. […] After a treatment period of approximately 48 hours, RNA was isolated from the cells and Yap1 mRNA levels were measured by quantitative real-time RTPCR. […] Yap1 mRNA levels were normalized to total RNA content, as measured by RIBOGREEN®. […]
Strand notation (5' to 3'): a small letter for the sugar, then the base; units joined by * are phosphorothioate-linked, units joined directly phosphodiester-linked; [ ] holds rarer units or linkages, { } end groups; capitals alone tell only the bases. k = constrained ethyl (cEt); [5mC] = 5-methylcytosine; d = 2'-deoxy (DNA)
assay.metric: YAP1 (% UTC)

[[record]]
substance = "715606 (antisense kA*k[5mC]*k[5mC]*dA*dT*dA*dG*d[5mC]*dA*d[5mC]*dA*dG*dA*kA*kT*kT) [Compound 715606]"
unit_info = "% UTC"
data_value = 88

[[record]]
substance = "715510 (antisense kA*kT*kT*dT*dG*d[5mC]*dT*dG*dT*dG*d[5mC]*dT*dG*kG*kG*kA) [Compound 715510]"
unit_info = "% UTC"
data_value = 22

[[record]]
substance = "715438 (antisense kT*kT*k[5mC]*dA*dT*dG*dG*d[5mC]*dA*dA*dA*dA*d[5mC]*kG*kA*kG) [Compound 715438]"
unit_info = "% UTC"
data_value = 82

[[record]]
substance = "715555 (kG*kT*kT*dA*dT*dT*d[5mC]*dA*dG*d[5mC]*dA*dG*d[5mC]*kT*kT*kA; antisense) [Compound 715555]"
unit_info = "% UTC"
data_value = 21

[[record]]
substance = "715441 (antisense k[5mC]*kT*k[5mC]*dT*dG*dG*dT*dT*d[5mC]*dA*dT*dG*dG*k[5mC]*kA*kA) [Compound 715441]"
unit_info = "% UTC"
data_value = 57

[[record]]
substance = "715405 (kT*kG*kA*dA*dG*dA*dA*dG*dG*dA*dG*dT*d[5mC]*kG*kG*kG; antisense) [Compound 715405]"
unit_info = "% UTC"
data_value = 60


---

Catalogue of YAP1 (% UTC) readings, one per entry.
# System: Yap1 mRNA
# test: Antisense inhibition of human Yap1 in A-431 cells by cEt gapmers, single dose (Example 3, RTS36584)
# Format: cell-based
# stated.conditions: Table 35; Yap1 mRNA as percent of untreated control; 3-10-3 cEt gapmers targeting SEQ ID NO: 1 and 2; single dose
Strand notation (5' to 3'): a small letter for the sugar, then the base; units joined by * are phosphorothioate-linked, units joined directly phosphodiester-linked; [ ] holds rarer units or linkages, { } end groups; capitals alone tell only the bases. k = constrained ethyl (cEt); [5mC] = 5-methylcytosine; d = 2'-deoxy (DNA)
assay.metric: YAP1 (% UTC)

[[record]]
substance = "1075733 (k[5mC]*kA*kA*dT*dA*dA*d[5mC]*d[5mC]*dT*d[5mC]*dG*dA*dG*kT*kG*k[5mC]; antisense) [compound 1075733]"
unit_info = "% UTC"
data_value = 28

[[record]]
substance = "1075061 (antisense k[5mC]*k[5mC]*kT*dT*dA*dT*dA*d[5mC]*dT*dT*dT*dT*dA*kG*k[5mC]*k[5mC]) [compound 1075061]"
unit_info = "% UTC"
data_value = 5

[[record]]
substance = "1074965 (antisense kG*kT*kG*dT*dT*dT*dA*dG*dG*d[5mC]*dA*dA*dG*k[5mC]*kA*kG) [compound 1074965]"
unit_info = "% UTC"
data_value = 20

[[record]]
substance = "1074197 (antisense kT*kG*k[5mC]*d[5mC]*d[5mC]*dG*dG*dG*dT*d[5mC]*d[5mC]*dG*dG*kA*k[5mC]*kG) [compound 1074197]"
unit_info = "% UTC"
data_value = 91

[[record]]
substance = "1075957 (k[5mC]*kT*kA*dT*dA*dA*dA*dG*d[5mC]*dA*dA*dT*dG*k[5mC]*kG*kA; antisense) [compound 1075957]"
unit_info = "% UTC"
data_value = 28


---

# Test system: Yap1 mRNA
# test: Antisense inhibition of human Yap1 in A-431 cells by cEt gapmers, single dose (Example 4, RTS4814)
# Assay type: cell-based
# stated.conditions: Table 15; A-431 cells, 5,000 cells per well, free uptake, 2,000 nM, approximately 48 hours; RTS4814; normalized to RIBOGREEN; Yap1 mRNA relative to untreated control; * = targets amplicon region of primer probe set
Strand notation (5' to 3'): a small letter for the sugar, then the base; units joined by * are phosphorothioate-linked, units joined directly phosphodiester-linked; [ ] holds rarer units or linkages, { } end groups; capitals alone tell only the bases. k = constrained ethyl (cEt); [5mC] = 5-methylcytosine; d = 2'-deoxy (DNA)
assay.metric: YAP1 (% UTC)

[[record]]
substance = "1075873 (k[5mC]*kT*kT*dG*dA*dA*dT*dA*d[5mC]*dT*dA*d[5mC]*dA*k[5mC]*k[5mC]*kA; antisense) [Compound 1075873]"
target_under_test = "Yap1 mRNA"
assay_metric = "YAP1 (% UTC)"
data_value = "16 % UTC"

[[record]]
substance = "1076193 (kT*kT*kA*dA*dT*dA*d[5mC]*dA*d[5mC]*dA*dG*dG*dT*kT*k[5mC]*k[5mC]; antisense) [Compound 1076193]"
target_under_test = "Yap1 mRNA"
assay_metric = "YAP1 (% UTC)"
data_value = "29 % UTC"

[[record]]
substance = "1076097 (k[5mC]*kA*kA*dT*dA*dA*dT*dA*dA*dA*d[5mC]*dG*dA*kT*kT*k[5mC]; antisense) [Compound 1076097]"
target_under_test = "Yap1 mRNA"
assay_metric = "YAP1 (% UTC)"
data_value = "70 % UTC"

[[record]]
substance = "1075649 (k[5mC]*kT*kT*d[5mC]*dA*dA*dT*dA*dA*dA*dG*dT*dG*kG*kG*kA; antisense) [Compound 1075649]"
target_under_test = "Yap1 mRNA"
assay_metric = "YAP1 (% UTC)"
data_value = "56 % UTC"

[[record]]
substance = "1075265 (antisense kT*k[5mC]*kT*dG*dA*dA*dT*dA*dA*dT*dA*dT*dG*k[5mC]*kA*kG) [Compound 1075265]"
target_under_test = "Yap1 mRNA"
assay_metric = "YAP1 (% UTC)"
data_value = "44 % UTC"

[[record]]
substance = "1074305 (antisense k[5mC]*kA*k[5mC]*d[5mC]*dT*dG*d[5mC]*d[5mC]*dG*dA*dA*dG*d[5mC]*kA*kG*kT) [Compound 1074305]"
target_under_test = "Yap1 mRNA"
assay_metric = "YAP1 (% UTC)"
data_value = "64 % UTC"


---

# test: Tolerability in Sprague-Dawley rats, body and organ weights (Example 21)
# Assay type: in vivo
# stated.conditions: male Sprague-Dawley rats, 50 mg/kg s.c. weekly for 6 weeks (7 doses), end of study
Strand notation (5' to 3'): a small letter for the sugar, then the base; units joined by * are phosphorothioate-linked, units joined directly phosphodiester-linked; [ ] holds rarer units or linkages, { } end groups; capitals alone tell only the bases. e = 2'-O-(2-methoxyethyl) (MOE); k = constrained ethyl (cEt); [5mC] = 5-methylcytosine; d = 2'-deoxy (DNA); m = 2'-O-methyl
assay.metric: Kidney weight (g)

[[record]]
substance = "1198612 (kA*kA*kG*dT*dG*dT*dA*dT*dG*dT*d[5mC]*dA*kG*kA*kA*eG) [compound 1198612]"
assay_metric = "Kidney weight"
unit_info = "g"
data_value = 3.60

[[record]]
substance = "1198873 (kA*kG*dT*dG*dT*dA*dT*dG*dT*d[5mC]*dA*kG*eA*kA*eG*kA; antisense) [compound 1198873]"
assay_metric = "Kidney weight"
unit_info = "g"
data_value = 3.65

[[record]]
substance = "1198615 (kT*kT*kA*dA*dA*dG*dT*dG*dT*dA*dT*dG*kT*k[5mC]*kA*eG) [compound 1198615]"
assay_metric = "Kidney weight"
unit_info = "g"
data_value = 3.01

[[record]]
substance = "1200857 (kA*kG*kT*dG*dT*mA*dT*dG*dT*d[5mC]*dA*dG*dA*kA*kG*kA; antisense) [compound 1200857]"
assay_metric = "Kidney weight"
unit_info = "g"
data_value = 6.97

[[record]]
substance = "1198312 (kG*k[5mC]*kA*d[5mC]*dT*dT*dT*dT*dA*d[5mC]*dA*dT*kT*eA*kG*eG) [compound 1198312]"
assay_metric = "Kidney weight"
unit_info = "g"
data_value = 4.26


The reported measurements were obtained from patent US11214803B2.
